# Tested on: NCI-H23 lung
# Protocol description: NCI tumour cell line growth inhibition, 48 h
Reported property: TGI

Look up and state reported TGI for C/C(O)=C(\C#N)C(=O)Nc1ccc(C(F)(F)F)cc1
> 100 µM

Look up and state reported TGI for O=C1OC(C2(O)OC(=O)c3ccccc32)c2ccccc21 (centres undefined)
> 100 µM

Look up and state reported TGI for O=C(N/N=C/c1ccc([N+](=O)[O-])cc1)Nc1ccc(Br)cc1
> 100 µM

Look up and state reported TGI for O=C1c2c(ccc3c2CCC3)CC12Cc1ccccc1C2
> 100 µM

Look up and state reported TGI for COC(=O)C1Cc2ccc3c(c2C1=O)CCCC3 (centres undefined)
> 100 µM

Look up and state reported TGI for C=C1C(=O)O[C@H]2[C@H]1CC/C(COC(=O)C(C)c1ccc(CC(C)C)cc1)=C\CC[C@@]1(C)O[C@@H]21 (some centres undefined)
3.92 µM

Look up and state reported TGI for COc1ccc(/C(=C/n2ccnc2)C(O)c2ccc(OC)c(OC)c2)cc1OC (centres undefined)
> 100 µM

Look up and state reported TGI for Cc1cccc(C(C)(C)C)c1NC(=O)CCc1nc(=S)[nH][nH]1
> 100 µM

Look up and state reported TGI for CSc1nc2c(c(N3CCOCC3)n1)C(O)n1c(nc3ccccc31)S2 (centres undefined)
> 100 µM

Look up and state reported TGI for CC1(C)NCCC[C@]2(C)[C@H]3CC[C@@H]4[C@H]5[C@H](C(=O)/C=C/c6ccccn6)CC[C@]5(CO)CC[C@@]4(C)[C@]3(C)CC[C@@H]12
14 µM

Look up and state reported TGI for Cc1nc2[nH]ncn2c(=O)c1CCCl
> 10 µM

Look up and state reported TGI for CC(=O)OCC1OC(O[C@@H]2C[C@H]3C(C)(C)[C@@H](OC(C)=O)CC[C@]3(C)[C@H]3CC[C@]45C[C@]4(CC[C@H]5[C@@H](C)C[C@@H](O)[C@H](O)C(C)(C)F)[C@@]32C)C(O)C(O)C1O (some centres undefined)
4.56 µM

Look up and state reported TGI for CC(=[N-])N1CCC[C@@H](Nc2c3ccccc3nc3ccccc23)C1.[Cl][Pt].[NH-]CCC[NH-]
2.75 µM

Look up and state reported TGI for CC(C)(C)c1ccc(OCCOCCOc2ccc(C(C)(C)C)cc2S(=O)(=O)Nc2ccc([N+](=O)[O-])cc2)c(S(=O)(=O)Nc2ccc([N+](=O)[O-])cc2)c1
> 100 µM

Look up and state reported TGI for CCOC(=O)C1=C(C)N(Cc2ccc(Cl)cc2Cl)C2(O)C=CC(=O)C3=C(O)c4ccccc4C(=O)C312 (centres undefined)
16.1 µM

Look up and state reported TGI for COc1ccc(/C=C2\CCC(CCN(C)C)(C3=CCCC3)C2=O)cc1Br (centres undefined)
29 µM

Look up and state reported TGI for O=C(N/N=C/c1ccc(O)cc1O)c1cccc(Nc2ccnc(C(F)(F)F)c2)c1
27.4 µM

Look up and state reported TGI for N=CN=CC(=S)O[C@@H]1C(=O)N2CCC[C@@]23CCCC[C@@H]13
> 12.5 µM

Look up and state reported TGI for COc1ccc(C2=C(N)c3ncccc3C2=O)cc1
> 100 µM

###

Assignment: determine reported log10 TGI for the given compounds.
# System: NCI-H522 lung
# Protocol description: NCI tumour cell line growth inhibition, 48 h
Where a SMILES comes first, the peptide text is derived from it. [ ]: non-standard residue; d: D form. ξ: configuration not given here. ξLac(3-iPr) = CC(C)CC(O)C(=O)O; NMeV = CN[CH](C(=O)O)C(C)C; NMeA = CN[CH](C)C(=O)O; βAla = NCCC(=O)O
The common logarithm of TGI in µM is what is listed.

Look up and state reported log10 TGI for C[N+](C)(C)CC(=O)N/N=C(\C(=O)NC1=C(Cl)C(=O)c2ccccc2C1=O)C(C#N)c1nc(-c2ccc([N+](=O)[O-])cc2)cs1 (stereo not given)
1.28

Look up and state reported log10 TGI for C=C(CO)[C@@H]1CC[C@]2(COC3CCCCO3)CC[C@]3(C)[C@H](CC[C@@H]4[C@@]5(C)C=C(C=O)C(=O)C(C)(C)[C@@H]5CC[C@]43C)[C@@H]12 (stereo not given in full)
-0.31

Look up and state reported log10 TGI for CCc1ccc(C(=Nc2ccc(N(C)C(=O)CN3CCN(C)CC3)cc2)c2c(O)[nH]c3ccc(C(=O)OC)cc23)cc1
0.38

Look up and state reported log10 TGI for CC(=O)OCC1OC(O[C@@H]2C[C@H]3C(C)(C)[C@@H](OC(C)=O)CC[C@]3(C)[C@H]3CC[C@]45C[C@]4(CC[C@H]5[C@@H](C)C[C@@H](O)[C@H](O)C(C)(C)F)[C@@]32C)C(O)C(O)C1O (stereo not given in full)
0.68

Look up and state reported log10 TGI for CCN(CCCl)c1cc(CN(C)C)cc(NC(=O)C23CCC(C(=O)Nc4cc(CN(C)C)cc(N(CC)CCCl)c4)(CC2)CC3)c1
0.17

Look up and state reported log10 TGI for CC(=[N-])N1CCC[C@@H](Nc2c3ccccc3nc3ccccc23)C1.[Cl][Pt].[NH-]CCC[NH-]
-0.78

Look up and state reported log10 TGI for O=S(=O)(SC1=NCCN1)c1cccc2ccccc12
1.56

Look up and state reported log10 TGI for OCCNc1nc(Nc2ccc(Cl)c(Cl)c2)nc2ccccc12
1.39

Look up and state reported log10 TGI for CCN(CC)Cc1ccc(C(=S)Nc2ccc(C)cc2)s1
1.46

Look up and state reported log10 TGI for CO/N=C(\COc1ccc2oc(-c3ccccc3)cc(=O)c2c1)c1ccc(OC)cc1
1.57

Look up and state reported log10 TGI for CCC(C)C1NC(=O)C2CCCN2C(=O)C(CC(C)C)OC(=O)CCNC(=O)C(C)N(C)C(=O)C(C(C)C)N(C)C1=O (stereo not given) (cyclo([ξLac(3-iPr)]PI[NMeV][NMeA][βAla]); configuration not given here)
1.78

Look up and state reported log10 TGI for CCCN(CCC)c1ccc(/C=N/NC(=O)c2cccnc2)c(OC)c1
1.76

Look up and state reported log10 TGI for Cc1cc(N2CCOCC2)nc(N(CCCNc2ccnc3cc(Cl)ccc23)Cc2ccco2)n1
1.04

Look up and state reported log10 TGI for O=C1c2c(ccc3c2CCC3)CC12Cc1ccccc1C2
1.87
